# Test system: BRD4 (Homo sapiens, UniProt O60885)
# Construct: HEK293 containing a HiBit insertion for BRD4; endogenous in cells; host or cells: HEK293 with a HiBiT insertion for BRD4
# Test: Assay 1 - Degradation of HiBit-BRD4 in HEK293
# Format: cell-based
# Measurement parameters: HiBit-BRD4 in HEK293, 6 h treatment
Assay readout: Dmax

The following compounds have reported results that may help.
[
  {
    "Compound": "CC(=O)N1c2ccc(-c3ccc(C(=O)NCCOCCOCCOCCOCCOCCNC(=O)C4CC(C5CCCCC5)CN(C(=O)/C(C#N)=C/c5ccc(F)cc5)C4)cc3)cc2[C@H](Nc2ccc(Cl)cc2)C[C@@H]1C (stereo partly drawn) [Example 13s]",
    "Dmax": "≥ 70%"
  },
  {
    "Compound": "CC(=O)N1c2ccc(-c3ccc(C(=O)NCCOCCOCCOCCOCCOCCNC(=O)C4CC(C(C)C)CN(C(=O)/C(C#N)=C/c5ccn(C)n5)C4)cc3)cc2[C@H](Nc2ccc(Cl)cc2)C[C@@H]1C (stereo partly drawn) [Example 13m]",
    "Dmax": "50 to 70%"
  },
  {
    "Compound": "CC(=O)N1c2ccc(-c3ccc(C(=O)NCCOCCOCCOCCOCCOCCNC(=O)C4CC(c5cccc(C)c5)CN(C(=O)/C(C#N)=C/C(C)(C)C)C4)cc3)cc2[C@H](Nc2ccc(Cl)cc2)C[C@@H]1C (stereo partly drawn) [Example 13au]",
    "Dmax": "≥ 70%"
  },
  {
    "Compound": "CC(=O)N1c2ccc(-c3ccc(C(=O)NCCOCCOCCOCCOCCOCCNC(=O)C4CC(c5ccccc5)CN(C(=O)/C(C#N)=C/C(C)(C)C)C4)cc3)cc2[C@H](Nc2ccc(Cl)cc2)C[C@@H]1C (stereo partly drawn) [Example 13aa]",
    "Dmax": "≥ 70%"
  },
  {
    "Compound": "CC(=O)N1c2ccc(-c3ccc(C(=O)NCCOCCOCCOCCOCCOCCNC(=O)C4CC(C(C)C)CN(C(=O)/C(C#N)=C/c5nccs5)C4)cc3)cc2[C@H](Nc2ccc(Cl)cc2)C[C@@H]1C (stereo partly drawn) [Example 13k]",
    "Dmax": "≥ 70%"
  }
]

Consider the compound CC(=O)N1c2ccc(-c3ccc(C(=O)NCCOCCOCCOCCOCCOCCNC(=O)C4CCCN(C(=O)/C(C#N)=C/c5ccc(F)cc5)C4)cc3)cc2[C@H](Nc2ccc(Cl)cc2)C[C@@H]1C (stereo partly drawn) [Example 13d] . State its measured Dmax.
30 to 50%

Consider the compound CC(=O)N1c2ccc(-c3ccc(C(=O)NCCOCCOCCOCCOCCOCCNC(=O)[C@@H]4CN(C(=O)/C(C#N)=C/c5nccs5)C[C@H]4c4cccc(C)c4)cc3)cc2[C@H](Nc2ccc(Cl)cc2)C[C@@H]1C [Example 15aj] . State its measured Dmax.
50 to 70%

Consider the compound COc1ccc([C@@H]2CN(C(=O)/C(C#N)=C/c3ccn(C)n3)C[C@H]2C(=O)NCCOCCOCCOCCOCCOCCNC(=O)c2ccc(-c3ccc4c(c3)[C@H](Nc3ccc(Cl)cc3)C[C@H](C)N4C(C)=O)cc2)cc1 [Example 15ab] . State its measured Dmax.
50 to 70%

Consider the compound CC(=O)N1c2ccc(-c3ccc(C(=O)NCCOCCOCCOCCOCCOCCNC(=O)C4CC(c5ccc(C(F)(F)F)cc5)CN(C(=O)/C(C#N)=C/C(C)(C)CN5CCOCC5)C4)cc3)cc2[C@H](Nc2ccc(Cl)cc2)C[C@@H]1C (stereo partly drawn) [Example 13an] . State its measured Dmax.
30 to 50%

* * *

# Test system: BRD4 (Homo sapiens)
# Construct: HEK293 containing a HiBit insertion for BRD4; endogenous in cells; host or cells: HEK293 with a HiBiT insertion for BRD4
# Test: Assay 1 - Degradation of HiBit-BRD4 in HEK293
# Assay type: cell-based
# Measurement parameters: HiBit-BRD4 in HEK293, 6 h treatment
Assay readout: DC50

The following compounds have reported results that may help.
[
  {
    "Compound": "COc1ccc(C2CC(C(=O)NCCOCCOCCOCCOCCOCCNC(=O)c3ccc(-c4ccc5c(c4)[C@H](Nc4ccc(Cl)cc4)C[C@H](C)N5C(C)=O)cc3)CN(C(=O)/C(C#N)=C/C(C)(C)CN3CCOCC3)C2)cc1 (stereo partly shown) [Example 13ai]",
    "Assay readout": "DC50",
    "Result": "> 200 nM"
  },
  {
    "Compound": "CC(=O)N1c2ccc(-c3ccc(C(=O)NCCOCCOCCOCCOCCOCCNC(=O)[C@@H]4CN(C(=O)/C(C#N)=C/C(C)(C)C)C[C@H]4CC(C)C)cc3)cc2[C@H](Nc2ccc(Cl)cc2)C[C@@H]1C [Example 15l]",
    "Assay readout": "DC50",
    "Result": "25 to 200 nM"
  },
  {
    "Compound": "CC(=O)N1c2ccc(-c3ccc(C(=O)NCCOCCOCCOCCOCCOCCNC(=O)[C@@H]4CN(C(=O)/C(C#N)=C/c5ccn(C)n5)C[C@H]4C4CCCCC4)cc3)cc2[C@H](Nc2ccc(Cl)cc2)C[C@@H]1C [Example 15r]",
    "Assay readout": "DC50",
    "Result": "> 200 nM"
  }
]

# next compound below
Consider the compound COc1ccc(C2CC(C(=O)NCCOCCOCCOCCOCCOCCNC(=O)c3ccc(-c4ccc5c(c4)[C@H](Nc4ccc(Cl)cc4)C[C@H](C)N5C(C)=O)cc3)CN(C(=O)/C(C#N)=C/C(C)(C)C)C2)cc1 (stereo partly shown) [Example 13af] . State its measured DC50.
25 to 200 nM

* * *

# Test system: UniProtKB Q9H8M2
# Sequence (Q9H8M2 whole entry): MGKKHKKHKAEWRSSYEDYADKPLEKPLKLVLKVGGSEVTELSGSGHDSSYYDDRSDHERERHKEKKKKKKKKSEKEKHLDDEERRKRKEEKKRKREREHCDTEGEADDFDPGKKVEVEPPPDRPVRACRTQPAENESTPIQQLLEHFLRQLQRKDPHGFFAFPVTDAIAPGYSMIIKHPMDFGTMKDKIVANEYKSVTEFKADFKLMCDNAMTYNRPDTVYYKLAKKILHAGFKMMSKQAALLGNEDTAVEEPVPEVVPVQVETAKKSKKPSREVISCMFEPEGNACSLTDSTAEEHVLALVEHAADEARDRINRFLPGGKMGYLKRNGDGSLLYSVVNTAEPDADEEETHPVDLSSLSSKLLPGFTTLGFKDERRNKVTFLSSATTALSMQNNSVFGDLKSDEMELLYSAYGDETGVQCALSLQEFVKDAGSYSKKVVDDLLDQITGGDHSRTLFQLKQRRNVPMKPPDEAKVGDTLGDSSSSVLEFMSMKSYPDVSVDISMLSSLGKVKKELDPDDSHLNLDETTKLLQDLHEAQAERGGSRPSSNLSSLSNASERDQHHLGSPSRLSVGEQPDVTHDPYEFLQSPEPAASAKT
# Test: Assay Protocol 2 - Degradation of BRD9 (IF) in MV4-11 cells
# Assay type: cell-based
# Design: host or cells: MV4-11
# Measurement parameters: Assay Protocol 2: BRD9 immunofluorescence, 24 hours
Assay readout: Dmax

[
  {
    "Molecule": "COc1cc(-c2cn(C)c(=O)c(C)c2C)cc(OC)c1CN1CCN(C(=O)[C@@H]2CN(C(=O)/C(C#N)=C/c3nccs3)C[C@H]2c2ccccc2)CC1",
    "Result": "50 to 70%"
  },
  {
    "Molecule": "COc1cc(-c2cn(C)c(=O)c(C)c2C)cc(OC)c1CN1CC2CCC(C1)N2C(=O)/C(C#N)=C/c1nccs1 (mixture of isomers)",
    "Result": "50 to 70%"
  }
]

# next molecule below
Consider the molecule COc1cc(-c2cn(C)c(=O)c(C)c2C)cc(OC)c1CN(C)C1CCN(C(=O)/C(C#N)=C/C23CC(C2)C3)CC1 (mixture of isomers) . State its measured Dmax.
≥ 70%

* * *

# Test system: BRD4 (Homo sapiens, UniProt O60885)
# Construct: HEK293 containing a HiBit insertion for BRD4; endogenous in cells; host or cells: HEK293 with a HiBiT insertion for BRD4
# Test: Assay 1 - Degradation of HiBit-BRD4 in HEK293
# Assay type: cell-based
# Measurement parameters: HiBit-BRD4 in HEK293, 6 h treatment
Dmax values, listed per item

[
  {
    "Molecule": "CC(=O)N1c2ccc(-c3ccc(C(=O)NCCOCCOCCOCCOCCOCCNC(=O)C4CC(C5CC5)CN(C(=O)/C(C#N)=C/C(C)(C)C)C4)cc3)cc2[C@H](Nc2ccc(Cl)cc2)C[C@@H]1C (stereo partly drawn) [Example 13v]",
    "Result": "≥ 70%"
  },
  {
    "Molecule": "CC(=O)N1c2ccc(-c3ccc(C(=O)NCCOCCOCCOCCOCCOCCNC(=O)[C@@H]4CN(C(=O)/C(C#N)=C/c5ccc(F)cc5)C[C@H]4c4ccccc4)cc3)cc2[C@H](Nc2ccc(Cl)cc2)C[C@@H]1C [Example 15x]",
    "Result": "30 to 50%"
  },
  {
    "Molecule": "CC(=O)N1c2ccc(-c3ccc(C(=O)NCCOCCOCCOCCOCCOCCNC(=O)C4CC(c5cccc(C)c5)CN(C(=O)/C(C#N)=C/c5nccs5)C4)cc3)cc2[C@H](Nc2ccc(Cl)cc2)C[C@@H]1C (stereo partly drawn) [Example 13at]",
    "Result": "≥ 70%"
  },
  {
    "Molecule": "CC(=O)N1c2ccc(-c3ccc(C(=O)NCCOCCOCCOCCOCCOCCNC(=O)[C@@H]4CN(C(=O)/C(C#N)=C/C(C)(C)CN5CCOCC5)C[C@H]4c4cccc(C)c4)cc3)cc2[C@H](Nc2ccc(Cl)cc2)C[C@@H]1C [Example 15an]",
    "Result": "30 to 50%"
  },
  {
    "Molecule": "CC(=O)N1c2ccc(-c3ccc(C(=O)NCCOCCOCCOCCOCCOCCNC(=O)C4CC(c5cccc(C)c5)CN(C(=O)/C(C#N)=C/c5ccn(C)n5)C4)cc3)cc2[C@H](Nc2ccc(Cl)cc2)C[C@@H]1C (stereo partly drawn) [Example 13av]",
    "Result": "50 to 70%"
  },
  {
    "Molecule": "COc1ccc([C@@H]2CN(C(=O)/C(C#N)=C/c3ccc(F)cc3)C[C@H]2C(=O)NCCOCCOCCOCCOCCOCCNC(=O)c2ccc(-c3ccc4c(c3)[C@H](Nc3ccc(Cl)cc3)C[C@H](C)N4C(C)=O)cc2)cc1 [Example 15ac]",
    "Result": "< 50%"
  },
  {
    "Molecule": "CC(=O)N1c2ccc(-c3ccc(C(=O)NCCOCCOCCOCCOCCOCCNC(=O)C4CC(C(C)C)CN(C(=O)/C(C#N)=C/C(C)(C)C)C4)cc3)cc2[C@H](Nc2ccc(Cl)cc2)C[C@@H]1C (stereo partly drawn) [Example 13l]",
    "Result": "30 to 50%"
  },
  {
    "Molecule": "CC(=O)N1c2ccc(-c3ccc(C(=O)NCCOCCOCCOCCOCCOCCNC(=O)[C@@H]4CN(C(=O)/C(C#N)=C/C(C)(C)C)C[C@H]4C)cc3)cc2[C@H](Nc2ccc(Cl)cc2)C[C@@H]1C [Example 15b]",
    "Result": "≥ 70%"
  }
]

Consider the molecule CC(=O)N1c2ccc(-c3ccc(C(=O)NCCOCCOCCOCCOCCOCCNC(=O)[C@@H]4CN(C(=O)/C(C#N)=C/c5ccc(F)cc5)C[C@H]4C4CCCCC4)cc3)cc2[C@H](Nc2ccc(Cl)cc2)C[C@@H]1C [Example 15s] . State its measured Dmax.
50 to 70%

Consider the molecule CC(=O)N1c2ccc(-c3ccc(C(=O)NCCOCCOCCOCCOCCOCCNC(=O)C4CC(C5CC5)CN(C(=O)/C(C#N)=C/c5nccs5)C4)cc3)cc2[C@H](Nc2ccc(Cl)cc2)C[C@@H]1C (stereo partly drawn) [Example 13u] . State its measured Dmax.
≥ 70%

Consider the molecule CC(=O)N1c2ccc(-c3ccc(C(=O)NCCOCCOCCOCCOCCOCCNC(=O)[C@@H]4CN(C(=O)/C(C#N)=C/C(C)(C)C)C[C@H]4C4CCCCC4)cc3)cc2[C@H](Nc2ccc(Cl)cc2)C[C@@H]1C [Example 15q] . State its measured Dmax.
≥ 70%

Consider the molecule COc1ccc(C2CC(C(=O)NCCOCCOCCOCCOCCOCCNC(=O)c3ccc(-c4ccc5c(c4)[C@H](Nc4ccc(Cl)cc4)C[C@H](C)N5C(C)=O)cc3)CN(C(=O)/C(C#N)=C/c3ccn(C)n3)C2)cc1 (stereo partly drawn) [Example 13ag] . State its measured Dmax.
50 to 70%

Consider the molecule CC(=O)N1c2ccc(-c3ccc(C(=O)NCCOCCOCCOCCOCCOCCNC(=O)[C@@H]4CN(C(=O)/C(C#N)=C/c5ccn(C)n5)C[C@H]4C(C)C)cc3)cc2[C@H](Nc2ccc(Cl)cc2)C[C@@H]1C [Example 15h] . State its measured Dmax.
50 to 70%

Consider the molecule CC(=O)N1c2ccc(-c3ccc(C(=O)NCCOCCOCCOCCOCCOCCNC(=O)[C@@H]4CN(C(=O)/C(C#N)=C/c5nccs5)C[C@H]4CC(C)C)cc3)cc2[C@H](Nc2ccc(Cl)cc2)C[C@@H]1C [Example 15k] . State its measured Dmax.
≥ 70%

Consider the molecule CC(=O)N1c2ccc(-c3ccc(C(=O)NCCOCCOCCOCCOCCOCCNC(=O)C4CC(C5CCCCC5)CN(C(=O)/C(C#N)=C/c5ccn(C)n5)C4)cc3)cc2[C@H](Nc2ccc(Cl)cc2)C[C@@H]1C (stereo partly drawn) [Example 13r] . State its measured Dmax.
≥ 70%

Consider the molecule CC(=O)N1c2ccc(-c3ccc(C(=O)NCCOCCOCCOCCOCCOCCNC(=O)C4CC(C(C)C)CN(C(=O)/C(C#N)=C/c5ccc(F)cc5)C4)cc3)cc2[C@H](Nc2ccc(Cl)cc2)C[C@@H]1C (stereo partly drawn) [Example 13n] . State its measured Dmax.
50 to 70%

Consider the molecule CC(=O)N1c2ccc(-c3ccc(C(=O)NCCOCCOCCOCCOCCOCCNC(=O)[C@@H]4CN(C(=O)/C(C#N)=C/C(C)(C)C)C[C@H]4C(C)C)cc3)cc2[C@H](Nc2ccc(Cl)cc2)C[C@@H]1C [Example 15g] . State its measured Dmax.
≥ 70%

Consider the molecule CC(=O)N1c2ccc(-c3ccc(C(=O)NCCOCCOCCOCCOCCOCCNC(=O)[C@@H]4CN(C(=O)/C(C#N)=C/C(C)(C)C)C[C@H]4c4ccc(F)cc4)cc3)cc2[C@H](Nc2ccc(Cl)cc2)C[C@@H]1C [Example 15af] . State its measured Dmax.
≥ 70%
